Biological target: Caspase-8 (Homo sapiens, UniProt Q14790)
Sequence (Q14790 217-479): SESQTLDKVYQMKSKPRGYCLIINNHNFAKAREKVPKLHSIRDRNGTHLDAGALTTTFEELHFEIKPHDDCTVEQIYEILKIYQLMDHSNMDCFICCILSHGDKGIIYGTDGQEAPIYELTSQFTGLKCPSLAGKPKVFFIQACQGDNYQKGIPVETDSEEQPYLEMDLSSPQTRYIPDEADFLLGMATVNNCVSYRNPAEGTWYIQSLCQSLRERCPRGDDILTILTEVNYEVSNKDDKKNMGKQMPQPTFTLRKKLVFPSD
Assay: Kinetic compound screening, progress curve method, caspase-8
Assay type: biochemical
Conditions: Table III; Ki(app) = Kass or Kobs/I; 10 nM active caspase-8
Description: Table III below presents Ki(app) values for select AB compounds. Ki(app) values (also called Kass or Kobs/I) represent the speed of inhibitor binding to a target enzyme. Units are [M^−1s^−1]. NI indicates no inhibition at concentrations tested. Parent compounds AB09, ABo8, and AB07 that include the optimal substrate specificity sequences for caspases-3, […] as determined by Thornberry and colleagues (Thornberry et al., 19970 are included between double lines. […]
Quick reference for Ki(app) Caspase-8 among some compounds

COMPOUND | Ki(app) Caspase-8
CC[C@H](NC(=O)[C@@H](CCC(=O)O)NC(=O)c1ccccc1N)C(=O)N[C@@H](CC(=O)O)C(=O)COC(=O)c1c(C)cccc1C | 817,077 M^−1s^−1
Cc1cccc(C)c1C(=O)OCC(=O)[C@H](CC(=O)O)NC(=O)C1CCCN1C(=O)[C@@H](CCC(=O)O)NC(=O)[C@H](CC(=O)O)NC(=O)Cc1ccc(O)c([N+](=O)[O-])c1 (some centres unmarked) | 580,547 M^−1s^−1
CCC(C)C(NC(=O)Cc1ccc(O)c([N+](=O)[O-])c1)C(=O)N[C@@H](CC(C)C)C(=O)N1CSCC1C(=O)N[C@@H](CC(=O)O)C(=O)COC(=O)c1c(C)cccc1C (some centres unmarked) | 49,815 M^−1s^−1
Cc1cccc(C)c1C(=O)OCC(=O)[C@H](CC(=O)O)NC(=O)[C@@H](NC(=O)[C@H](CCC(=O)O)NC(=O)[C@H](Cc1ccc(I)cc1)NC(=O)Cc1ccc(O)c([N+](=O)[O-])c1)C(C)O (some centres unmarked) | 572,012 M^−1s^−1
Cc1ccc(C[C@H](NC(=O)Cc2ccc(O)c([N+](=O)[O-])c2)C(=O)N[C@@H](CCC(=O)O)C(=O)N[C@H](C(=O)N[C@@H](CC(=O)O)C(=O)COC(=O)c2c(C)cccc2C)C(C)O)cc1 (some centres unmarked) | 1,071,401 M^−1s^−1

====

Quick reference for Caspase-9 Ki (app) among some molecules
target: UniProt:P55211; test: Kinetic compound screening, progress curve method, caspase-9; assay type: biochemical; details: Table IV; NI = no inhibition at concentrations tested
Sequence (P55211 whole entry): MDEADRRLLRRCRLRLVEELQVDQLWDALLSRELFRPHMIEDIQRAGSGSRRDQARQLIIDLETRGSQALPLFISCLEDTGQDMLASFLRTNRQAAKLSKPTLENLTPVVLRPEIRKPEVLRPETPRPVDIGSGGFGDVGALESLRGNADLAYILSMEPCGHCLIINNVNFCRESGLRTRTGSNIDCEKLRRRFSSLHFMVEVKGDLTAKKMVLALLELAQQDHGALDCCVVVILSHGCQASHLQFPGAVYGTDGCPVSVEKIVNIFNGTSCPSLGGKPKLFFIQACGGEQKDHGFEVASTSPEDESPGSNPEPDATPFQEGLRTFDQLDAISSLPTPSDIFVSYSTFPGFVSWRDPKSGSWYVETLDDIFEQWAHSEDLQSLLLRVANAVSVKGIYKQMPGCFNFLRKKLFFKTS
Residues, ends and D or L forms follow the SMILES beside them. *: point of attachment. Cbz = O=C(OCc1ccccc1)*; CH2F = FC*

MOLECULE | Caspase-9 Ki (app)
Cc1cccc(C)c1C(=O)OCC(=O)[C@H](CC(=O)O)NC(=O)[C@@H](NC(=O)[C@H](CCC(=O)O)NC(=O)[C@H](CC(C)C)NC(=O)Cc1ccc(O)c([N+](=O)[O-])c1)C(C)O (stereo partly drawn) | <5,000 M-1s-1
Cc1cccc(C)c1C(=O)OCC(=O)[C@H](CC(=O)O)NC(=O)[C@H](C)NC(=O)[C@H](CC(C)C)NC(=O)C1CCCN1C(=O)Cc1ccc([N+](=O)[O-])c(O)c1 (stereo partly drawn) | 18,004 M-1s-1
COC(=O)C[C@H](NC(=O)[C@H](C)NC(=O)[C@@H](NC(=O)OCc1ccccc1)C(C)C)C(=O)CF [ZVAD-fmk, reference compound] (Cbz-Val-Ala-Asp(OMe)-CH2F) | <5,000 M-1s-1
Cc1ccc(C[C@H](NC(=O)Cc2ccc(O)c([N+](=O)[O-])c2)C(=O)N[C@@H](CCC(=O)O)C(=O)N[C@H](C(=O)N[C@@H](CC(=O)O)C(=O)COC(=O)c2c(C)cccc2C)C(C)O)cc1 (stereo partly drawn) | 41,300 M-1s-1
CCC(C)C(NC(=O)Cc1ccc(O)c([N+](=O)[O-])c1)C(=O)N[C@@H](CC(C)C)C(=O)N1CSCC1C(=O)N[C@@H](CC(=O)O)C(=O)COC(=O)c1c(C)cccc1C (stereo partly drawn) | 35,779 M-1s-1
Cc1cccc(C)c1C(=O)OCC(=O)[C@H](CC(=O)O)NC(=O)[C@@H](NC(=O)[C@H](CCC(=O)O)NC(=O)[C@H](Cc1ccc(I)cc1)NC(=O)Cc1ccc(O)c([N+](=O)[O-])c1)C(C)O (stereo partly drawn) | 12,320 M-1s-1
CCC(C)C(NC(=O)Cc1ccc(O)c([N+](=O)[O-])c1)C(=O)NC(Cc1ccccc1)C(=O)N1CCCC1C(=O)N[C@@H](CC(=O)O)C(=O)COC(=O)c1c(C)cccc1C (stereo partly drawn) | 44,709 M-1s-1
Cc1cccc(C)c1C(=O)OCC(=O)[C@H](CC(=O)O)NC(=O)C1CCCN1C(=O)[C@@H](CCC(=O)O)NC(=O)[C@H](CC(=O)O)NC(=O)Cc1ccc(O)c([N+](=O)[O-])c1 (stereo partly drawn) | 47,362 M-1s-1
Cc1cccc(C)c1C(=O)OCC(=O)[C@H](CC(=O)O)NC(=O)[C@@H](NC(=O)[C@H](CCC(=O)O)NC(=O)[C@H](CC(=O)O)NC(=O)Cc1ccc(O)c([N+](=O)[O-])c1)C(C)C | <5,000 M-1s-1
